System tested: Cannabinoid receptor 1 (Homo sapiens)
Sequence (P21554 whole entry): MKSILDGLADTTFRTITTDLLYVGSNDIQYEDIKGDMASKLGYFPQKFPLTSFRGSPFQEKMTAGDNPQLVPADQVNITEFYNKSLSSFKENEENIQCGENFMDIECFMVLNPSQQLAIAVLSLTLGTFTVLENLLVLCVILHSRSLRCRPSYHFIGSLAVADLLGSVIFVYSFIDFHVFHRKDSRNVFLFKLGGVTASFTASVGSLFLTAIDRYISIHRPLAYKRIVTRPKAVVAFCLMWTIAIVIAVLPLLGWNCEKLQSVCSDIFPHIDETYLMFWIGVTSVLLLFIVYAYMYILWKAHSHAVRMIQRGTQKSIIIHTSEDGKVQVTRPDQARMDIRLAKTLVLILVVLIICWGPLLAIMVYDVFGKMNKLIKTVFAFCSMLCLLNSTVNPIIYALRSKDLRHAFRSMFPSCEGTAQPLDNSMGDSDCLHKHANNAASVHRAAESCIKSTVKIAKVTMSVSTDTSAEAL
Assay notes: Antagonist activity at human CB1-receptor expressed in CHO-K1 cells coexpressing G-alpha16 at 10 uM pre-incubated for 10 mins and later treated with 100 nM CB-receptor agonist, CP55940 by Fluo-4-AM dye based calcium mobilization assay
Format: cell-based
Could you please report measured inhibition at 10 µM for the items listed next?

// solved cases for inhibition at 10 µM follow
{"Test smiles": "CCCCCn1nc(C(=O)NC23CC4CC(CC(C4)C2)C3)c2ccccc21", "Measured result": "< 50%"}
{"Test smiles": "O=C(NC12CC3CC(CC(C3)C1)C2)c1cc2ncccc2n1CCN1CCOCC1", "Measured result": "< 50%"}

Just so you know, measured inhibition at 10 µM for O=C(NC12CC3CC(CC(C3)C1)C2)c1cn(CCN2CCOCC2)c2ncccc12 came out at < 50%
